ASSAY_EXPLANATION: Inhibition of jack bean alpha-D-mannosidase
Design: species or system Canavalia ensiformis
PARAMETER_MEASURED: IC50 (µM)
Value expressed in µM; do not type the unit.

Returns the measured IC50 for the input compound. Input: OC[C@H]1N=C[C@@H](O)[C@@H]1O [NECTRISINE]
3

Would you kindly repeat that for OC[C@H]1NC[C@@H](O)[C@@H]1O ?
200

---

ASSAY_EXPLANATION: Inhibition of green coffee bean alpha-D-galactosidase
PARAMETER_MEASURED: pKi
// pKi here means minus log10 of the molar concentration (mol/L)

I have this compound here, O[C@@H]1C=NC[C@@H]1O , and I need its recorded pKi.
6.70

// data source = ChEMBL document CHEMBL1148003
